Test system: Peronospora parasitica
Experiment: In vivo preventive test on Peronospora parasitica (Crucifer downy mildew) on cabbage
Details: Hyaloperonospora parasitica, 120 h, 500 ppm of active ingredient, sprayed 72 hours before inoculation, evaluated 5 days after inoculation, read-out: efficacy
Procedure: The tested active ingredients were prepared by homogenization in a mixture of acetone/Dimethyl sulfoxide/Tween®, and then diluted with water to obtain the desired active material concentration. The young plants of cabbage were treated by spraying the active ingredient prepared as described above. Control plants were treated only with an aqueous solution of acetone/Dimethyl sulfoxide/Tween®. […] The test was evaluated 5 days after the inoculation. […]
Provide the recorded pest or weed control at 500 ppm for the entries that follow.

Use the examples below as a reference point.
> print(dat)
                                   molecule            study.system                observed.property  observed.measurement
1  CCCSC(=O)C1(NC(=O)c2sc(Br)c(Br)c2C)CC1 [I.134]  Peronospora parasitica  pest or weed control at 500 ppm             80 to 89%
2  Cc1c(C(=S)N[C@H](C(=O)O)C(C)C)sc(Br)c1Br [I.031]  Peronospora parasitica  pest or weed control at 500 ppm            90 to 100%
3  CCCOC(=O)C1(NC(=O)c2sc(Br)c(Br)c2C)CCC1 [I.133]  Peronospora parasitica  pest or weed control at 500 ppm            90 to 100%
4  COC(=O)CC[C@H](NC(=O)c1sc(Br)c(Br)c1C)C(=O)OC [I.136]  Peronospora parasitica  pest or weed control at 500 ppm            90 to 100%
5  Cc1c(C(=O)NC(C(=O)O)C2CC2)sc(Br)c1Br (centres unmarked) [I.080]  Peronospora parasitica  pest or weed control at 500 ppm            90 to 100%

Please state pest or weed control at 500 ppm for every molecule in the list that follows.
1. CCOC(=O)C(CO)NC(=O)c1sc(Cl)c(Cl)c1C (centres unmarked) [I.039]
2. COC(=O)C(Cc1c[nH]cn1)NC(=O)c1sc(Br)c(Br)c1C (centres unmarked) [I.033]
3. CCOC(=O)C(CO)NC(=O)c1sc(Br)c(Br)c1C (centres unmarked) [I.006]

90 to 100%
80 to 89%
90 to 100%

* * *

Assay: LogP by HPLC on reversed phase columns (EEC directive 79/831 Annex V.A8)
Format: physicochemical
Details: method [a]
OBSERVED PROPERTY: LogP

> print(dat)
                                   molecule  observed.measurement
1  CCNC(=O)SC[C@H](NC(=O)c1sc(Cl)c(Cl)c1C)C(=O)OC              3.22^[a]
2  Cc1c(C(=O)NC2(C(=O)OC(C)(C)C)CCC2)sc(Cl)c1Cl              4.55^[a]
3  CCCCOC(=O)C1(NC(=O)c2sc(Cl)c(Cl)c2C)CCC1              4.59^[a]

Please state LogP for every molecule in the list that follows.
1. CCOC(=O)CN(OC)C(=O)c1sc(Cl)c(Cl)c1C
2. COC(=O)C1(NC(=O)c2sc(Br)c(Br)c2C)CCOCC1
3. Cc1c(C(=O)NC(C#N)C(C)C)sc(Br)c1Br (stereo not drawn)
4. Cc1c(C(=O)NC(C)(C#N)C2CC2)sc(Br)c1Br (stereo not drawn)
5. COC(=O)[C@H](CC(N)=O)NC(=O)c1sc(Cl)c(Cl)c1C
6. Cc1c(C(=O)NC(C(=O)NC(C(=O)O)C2CC2)C2CC2)sc(Cl)c1Cl (stereo not drawn)
7. Cc1c(C(=O)NC2(C(=O)OC3CCCCC3)CCC2)sc(Cl)c1Cl

3.87^[a]
2.82^[a]
3.64^[a]
3.50^[a]
2.02^[a]
2.67^[a]
5.08^[a]
